Values from patent US20150086555A1

Biological target: recombinant homotrimeric HA A/chicken/Vietnam/NCVD-016/08 H5N1 (Influenza A virus A/chicken/Vietnam/NCVD-016/2008(H5N1))
Assay: protein microarray, purified IgG, trimeric HA
Settings: remark: other sources report otherwise
Exercise: state measured Trimeric HA Binding: RLU for each of the binders provided.

Below: 5 binders and their reported Trimeric HA Binding: RLU.
[[record]]
binder = "TCN-523 (5248_A17) (antibody, V domains shown) VH: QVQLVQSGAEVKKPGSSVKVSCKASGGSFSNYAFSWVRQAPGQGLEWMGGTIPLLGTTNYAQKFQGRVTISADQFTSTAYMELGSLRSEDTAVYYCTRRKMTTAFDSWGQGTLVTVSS VL: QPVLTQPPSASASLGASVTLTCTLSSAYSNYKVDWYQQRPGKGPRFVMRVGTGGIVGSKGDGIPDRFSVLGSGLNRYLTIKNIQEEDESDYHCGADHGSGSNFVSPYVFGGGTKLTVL"
result = "4960 RLU"

[[record]]
binder = "TCN-522 (3212_I12) (antibody, V domains shown) VH: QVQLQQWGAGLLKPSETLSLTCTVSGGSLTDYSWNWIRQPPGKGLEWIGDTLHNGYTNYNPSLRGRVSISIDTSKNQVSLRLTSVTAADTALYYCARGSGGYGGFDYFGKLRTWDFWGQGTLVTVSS VL: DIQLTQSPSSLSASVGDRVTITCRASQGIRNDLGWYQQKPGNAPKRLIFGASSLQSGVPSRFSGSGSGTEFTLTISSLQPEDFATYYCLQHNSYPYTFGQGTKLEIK"
result = "1960 RLU"

[[record]]
binder = "TCN-546 (5089_L08) (antibody, V domains shown) VH: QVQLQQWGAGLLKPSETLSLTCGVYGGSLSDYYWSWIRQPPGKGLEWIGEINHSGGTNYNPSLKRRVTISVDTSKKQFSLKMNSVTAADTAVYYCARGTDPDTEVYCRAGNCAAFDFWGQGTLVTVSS VL: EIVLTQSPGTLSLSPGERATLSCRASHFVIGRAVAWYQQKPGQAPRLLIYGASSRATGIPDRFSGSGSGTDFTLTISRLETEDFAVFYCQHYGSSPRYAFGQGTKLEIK"
result = "207 RLU"

[[record]]
binder = "TCN-550 (5096_F06) (antibody, V domains shown) VH: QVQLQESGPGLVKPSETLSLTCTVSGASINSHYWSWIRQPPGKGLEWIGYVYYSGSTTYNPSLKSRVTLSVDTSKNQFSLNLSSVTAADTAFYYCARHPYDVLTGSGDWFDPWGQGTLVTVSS VL: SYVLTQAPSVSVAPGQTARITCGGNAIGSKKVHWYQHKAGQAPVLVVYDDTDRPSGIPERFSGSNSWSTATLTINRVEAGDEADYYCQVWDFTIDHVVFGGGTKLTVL"
result = "295 RLU"

[[record]]
binder = "TCN-540 (5060_F05) (antibody, V domains shown) VH: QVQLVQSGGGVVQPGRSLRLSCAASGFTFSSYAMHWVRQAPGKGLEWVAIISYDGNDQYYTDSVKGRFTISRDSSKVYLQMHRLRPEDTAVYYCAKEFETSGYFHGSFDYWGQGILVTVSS VL: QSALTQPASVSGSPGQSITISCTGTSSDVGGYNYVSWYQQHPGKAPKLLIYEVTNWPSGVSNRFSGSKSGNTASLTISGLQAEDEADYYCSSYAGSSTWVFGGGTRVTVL"
result = "338 RLU"


Okay, here is my list. What is Trimeric HA Binding: RLU for each of these?
1. TCN-527 (5086_C06) (antibody, V domains shown) VH: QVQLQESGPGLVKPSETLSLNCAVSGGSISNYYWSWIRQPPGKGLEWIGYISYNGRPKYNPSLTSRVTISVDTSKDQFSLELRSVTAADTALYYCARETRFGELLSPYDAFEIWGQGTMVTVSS VL: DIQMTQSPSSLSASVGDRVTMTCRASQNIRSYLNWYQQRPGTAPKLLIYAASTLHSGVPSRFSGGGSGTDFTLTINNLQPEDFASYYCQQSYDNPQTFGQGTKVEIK
2. TCN-555 (5246_L16) (antibody, V domains shown) VH: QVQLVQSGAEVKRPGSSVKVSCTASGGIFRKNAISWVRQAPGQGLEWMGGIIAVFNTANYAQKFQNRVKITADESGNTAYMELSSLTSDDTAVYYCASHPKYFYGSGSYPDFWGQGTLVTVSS VL: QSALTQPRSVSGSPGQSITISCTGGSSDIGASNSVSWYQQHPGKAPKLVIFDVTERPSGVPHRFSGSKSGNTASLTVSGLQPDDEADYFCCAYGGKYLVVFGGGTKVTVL
3. TCN-528 (5087_P17) (antibody, V domains shown) VH: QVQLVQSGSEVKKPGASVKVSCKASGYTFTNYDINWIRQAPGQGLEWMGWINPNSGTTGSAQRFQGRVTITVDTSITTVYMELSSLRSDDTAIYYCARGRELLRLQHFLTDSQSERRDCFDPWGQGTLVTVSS VL: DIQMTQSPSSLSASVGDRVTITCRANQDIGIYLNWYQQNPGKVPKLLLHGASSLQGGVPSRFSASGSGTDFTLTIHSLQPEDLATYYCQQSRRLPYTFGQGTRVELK
4. TCN-534 (5249_B02) (antibody, V domains shown) VH: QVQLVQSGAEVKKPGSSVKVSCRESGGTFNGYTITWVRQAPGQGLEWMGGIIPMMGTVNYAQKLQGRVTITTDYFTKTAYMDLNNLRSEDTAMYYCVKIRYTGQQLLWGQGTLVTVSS VL: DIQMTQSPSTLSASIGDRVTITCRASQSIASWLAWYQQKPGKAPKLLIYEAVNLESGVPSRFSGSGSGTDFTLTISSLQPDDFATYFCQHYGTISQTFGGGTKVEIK
5. TCN-557 (5081_A04) (antibody, V domains shown) VH: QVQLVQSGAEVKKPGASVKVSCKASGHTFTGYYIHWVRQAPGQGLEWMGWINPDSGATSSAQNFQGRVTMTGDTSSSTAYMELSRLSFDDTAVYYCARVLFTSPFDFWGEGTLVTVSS VL: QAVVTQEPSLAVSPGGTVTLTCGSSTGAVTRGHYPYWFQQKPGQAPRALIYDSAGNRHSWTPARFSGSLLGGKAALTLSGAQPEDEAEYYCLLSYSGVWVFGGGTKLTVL

Result:
25200 RLU
4420 RLU
22700 RLU
5170 RLU
25400 RLU
